# study_target: 26S proteasome non-ATPase regulatory subunit 14 (Homo sapiens, UniProt O00487)
# Sequence (O00487 whole entry): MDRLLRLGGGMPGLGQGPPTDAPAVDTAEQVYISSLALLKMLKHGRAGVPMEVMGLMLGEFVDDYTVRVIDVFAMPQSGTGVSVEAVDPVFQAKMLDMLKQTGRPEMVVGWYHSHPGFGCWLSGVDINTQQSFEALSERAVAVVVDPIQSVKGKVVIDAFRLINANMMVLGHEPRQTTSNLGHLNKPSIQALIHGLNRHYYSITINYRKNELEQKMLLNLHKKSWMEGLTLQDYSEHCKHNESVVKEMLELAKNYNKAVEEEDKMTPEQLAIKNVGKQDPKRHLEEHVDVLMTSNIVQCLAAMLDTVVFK
# protocol_details: inhibition of proteasome subunit RPN11 – biochemical, fluorescence polarization, uHTS hits, confirmation (AID 602368)
# Format: functional
Activity calls are given as the source filed them.
readout_kind: IC50

> print(dat)
                                   molecule  readout.kind       measurement
1  NS(=O)(=O)c1ccc(NC(=O)c2cccc(N3C(=O)c4ccccc4C3=O)c2)cc1          IC50  40.2 µM (active)
2  Cc1cc(C)cc(-n2cccc2/C=C2/C(=N)N3C(=NC2=O)SN=C3S(C)(=O)=O)c1          IC50  37.6 µM (active)
3  Cc1ccc(-n2cccc2/C=C2/C(=N)N3C(=NC2=O)SN=C3S(C)(=O)=O)cc1          IC50  26.2 µM (active)

Now turn to the next molecule.
Provide IC50 value for the following molecule: C(=C\c1ccco1)/C1=NN(c2ccccc2)C(c2ccco2)C1 (centres undefined) 22.8 µM (active)

###

# study_target: Ras and Rab interactor 1/Tyrosine-protein kinase ABL1 (Homo sapiens, UniProt P00519+Q13671);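 note: biochemical TR-FRET dose-response test measuring inhibition of binding between Rin1 and Abl proteins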
# Sequence (P00519 whole entry): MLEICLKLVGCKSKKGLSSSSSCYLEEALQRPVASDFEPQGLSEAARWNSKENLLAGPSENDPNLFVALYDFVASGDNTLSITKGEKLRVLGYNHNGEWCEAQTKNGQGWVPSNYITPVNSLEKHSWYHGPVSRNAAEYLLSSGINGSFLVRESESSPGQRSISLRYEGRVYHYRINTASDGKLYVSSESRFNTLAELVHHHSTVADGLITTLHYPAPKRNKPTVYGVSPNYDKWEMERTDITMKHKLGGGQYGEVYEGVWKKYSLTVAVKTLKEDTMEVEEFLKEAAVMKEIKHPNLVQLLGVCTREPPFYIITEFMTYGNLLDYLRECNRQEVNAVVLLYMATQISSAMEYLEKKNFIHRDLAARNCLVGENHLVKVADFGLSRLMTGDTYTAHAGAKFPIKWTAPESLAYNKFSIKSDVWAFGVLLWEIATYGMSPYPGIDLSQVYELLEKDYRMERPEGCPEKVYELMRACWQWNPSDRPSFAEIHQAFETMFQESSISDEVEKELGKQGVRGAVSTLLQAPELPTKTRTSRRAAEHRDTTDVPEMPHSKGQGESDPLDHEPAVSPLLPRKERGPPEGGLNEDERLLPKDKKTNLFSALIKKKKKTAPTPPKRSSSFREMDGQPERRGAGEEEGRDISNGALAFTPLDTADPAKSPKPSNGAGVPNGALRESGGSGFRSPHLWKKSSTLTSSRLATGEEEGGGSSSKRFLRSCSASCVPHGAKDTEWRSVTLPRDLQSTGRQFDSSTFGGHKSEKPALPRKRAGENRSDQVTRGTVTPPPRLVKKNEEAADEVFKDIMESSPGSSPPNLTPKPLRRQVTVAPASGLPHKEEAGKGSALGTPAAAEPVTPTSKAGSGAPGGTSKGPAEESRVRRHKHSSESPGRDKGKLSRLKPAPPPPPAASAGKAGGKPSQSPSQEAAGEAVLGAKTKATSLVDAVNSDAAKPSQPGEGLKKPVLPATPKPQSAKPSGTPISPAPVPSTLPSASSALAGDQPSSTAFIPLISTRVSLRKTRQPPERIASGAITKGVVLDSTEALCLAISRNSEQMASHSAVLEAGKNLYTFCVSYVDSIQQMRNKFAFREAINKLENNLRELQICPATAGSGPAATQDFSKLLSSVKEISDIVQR
# Sequence (Q13671 whole entry): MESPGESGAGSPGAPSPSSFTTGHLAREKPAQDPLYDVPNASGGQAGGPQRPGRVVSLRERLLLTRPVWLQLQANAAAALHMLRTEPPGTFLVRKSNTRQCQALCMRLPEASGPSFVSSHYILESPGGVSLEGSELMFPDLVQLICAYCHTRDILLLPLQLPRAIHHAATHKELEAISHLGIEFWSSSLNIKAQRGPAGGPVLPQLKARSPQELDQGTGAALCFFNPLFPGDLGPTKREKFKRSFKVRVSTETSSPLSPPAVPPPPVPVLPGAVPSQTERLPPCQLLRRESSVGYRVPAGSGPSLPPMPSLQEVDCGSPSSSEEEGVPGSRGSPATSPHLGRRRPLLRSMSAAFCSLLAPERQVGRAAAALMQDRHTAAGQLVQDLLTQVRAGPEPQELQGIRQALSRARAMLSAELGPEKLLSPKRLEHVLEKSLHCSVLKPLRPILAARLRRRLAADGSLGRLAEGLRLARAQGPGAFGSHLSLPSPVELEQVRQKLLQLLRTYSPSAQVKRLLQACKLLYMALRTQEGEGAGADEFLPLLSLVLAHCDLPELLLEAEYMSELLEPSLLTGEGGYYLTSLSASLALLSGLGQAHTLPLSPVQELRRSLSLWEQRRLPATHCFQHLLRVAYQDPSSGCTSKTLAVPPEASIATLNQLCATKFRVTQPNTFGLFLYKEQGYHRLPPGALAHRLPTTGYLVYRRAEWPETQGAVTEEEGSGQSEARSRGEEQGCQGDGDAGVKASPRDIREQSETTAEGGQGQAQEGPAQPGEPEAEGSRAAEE
# Type: functional
Active and inactive are the calls of the source.
Select the correct class. Options are y for active, n for inactive and nothing else.

// known answers, use as guide
> print(dat)
                                   molecule  discrete.label
1      O=C(NC1(O)C(=O)c2ccccc2C1=O)c1ccccc1               n
2  OCCNc1ncnc2c1ncn2[C@H]1CN(Cc2ccc(-c3ccccc3)cc2)C[C@@H](CO)O1               n
3  N#CC12CCCCC1CC1CCCCC1(C#N)N2Cc1cccnc1 (stereo unspecified)               y
4   CCN(CC)C(=O)CSc1nc(Cc2ccccc2)nc2ccccc12               n
5  O=S(=O)(Nc1cc2nc3ccccc3nc2n1Cc1ccccc1)c1ccc(Cl)cc1               n

Now for another entry.
Please indicate how the test categorized O=C(CC1SCCNC1=O)Nc1cccc(Cl)c1 (stereo unspecified) . n

###

# study_target: Fatty acid synthase (Homo sapiens, UniProt P49327)
# Sequence (P49327 whole entry, the tested form may be a part): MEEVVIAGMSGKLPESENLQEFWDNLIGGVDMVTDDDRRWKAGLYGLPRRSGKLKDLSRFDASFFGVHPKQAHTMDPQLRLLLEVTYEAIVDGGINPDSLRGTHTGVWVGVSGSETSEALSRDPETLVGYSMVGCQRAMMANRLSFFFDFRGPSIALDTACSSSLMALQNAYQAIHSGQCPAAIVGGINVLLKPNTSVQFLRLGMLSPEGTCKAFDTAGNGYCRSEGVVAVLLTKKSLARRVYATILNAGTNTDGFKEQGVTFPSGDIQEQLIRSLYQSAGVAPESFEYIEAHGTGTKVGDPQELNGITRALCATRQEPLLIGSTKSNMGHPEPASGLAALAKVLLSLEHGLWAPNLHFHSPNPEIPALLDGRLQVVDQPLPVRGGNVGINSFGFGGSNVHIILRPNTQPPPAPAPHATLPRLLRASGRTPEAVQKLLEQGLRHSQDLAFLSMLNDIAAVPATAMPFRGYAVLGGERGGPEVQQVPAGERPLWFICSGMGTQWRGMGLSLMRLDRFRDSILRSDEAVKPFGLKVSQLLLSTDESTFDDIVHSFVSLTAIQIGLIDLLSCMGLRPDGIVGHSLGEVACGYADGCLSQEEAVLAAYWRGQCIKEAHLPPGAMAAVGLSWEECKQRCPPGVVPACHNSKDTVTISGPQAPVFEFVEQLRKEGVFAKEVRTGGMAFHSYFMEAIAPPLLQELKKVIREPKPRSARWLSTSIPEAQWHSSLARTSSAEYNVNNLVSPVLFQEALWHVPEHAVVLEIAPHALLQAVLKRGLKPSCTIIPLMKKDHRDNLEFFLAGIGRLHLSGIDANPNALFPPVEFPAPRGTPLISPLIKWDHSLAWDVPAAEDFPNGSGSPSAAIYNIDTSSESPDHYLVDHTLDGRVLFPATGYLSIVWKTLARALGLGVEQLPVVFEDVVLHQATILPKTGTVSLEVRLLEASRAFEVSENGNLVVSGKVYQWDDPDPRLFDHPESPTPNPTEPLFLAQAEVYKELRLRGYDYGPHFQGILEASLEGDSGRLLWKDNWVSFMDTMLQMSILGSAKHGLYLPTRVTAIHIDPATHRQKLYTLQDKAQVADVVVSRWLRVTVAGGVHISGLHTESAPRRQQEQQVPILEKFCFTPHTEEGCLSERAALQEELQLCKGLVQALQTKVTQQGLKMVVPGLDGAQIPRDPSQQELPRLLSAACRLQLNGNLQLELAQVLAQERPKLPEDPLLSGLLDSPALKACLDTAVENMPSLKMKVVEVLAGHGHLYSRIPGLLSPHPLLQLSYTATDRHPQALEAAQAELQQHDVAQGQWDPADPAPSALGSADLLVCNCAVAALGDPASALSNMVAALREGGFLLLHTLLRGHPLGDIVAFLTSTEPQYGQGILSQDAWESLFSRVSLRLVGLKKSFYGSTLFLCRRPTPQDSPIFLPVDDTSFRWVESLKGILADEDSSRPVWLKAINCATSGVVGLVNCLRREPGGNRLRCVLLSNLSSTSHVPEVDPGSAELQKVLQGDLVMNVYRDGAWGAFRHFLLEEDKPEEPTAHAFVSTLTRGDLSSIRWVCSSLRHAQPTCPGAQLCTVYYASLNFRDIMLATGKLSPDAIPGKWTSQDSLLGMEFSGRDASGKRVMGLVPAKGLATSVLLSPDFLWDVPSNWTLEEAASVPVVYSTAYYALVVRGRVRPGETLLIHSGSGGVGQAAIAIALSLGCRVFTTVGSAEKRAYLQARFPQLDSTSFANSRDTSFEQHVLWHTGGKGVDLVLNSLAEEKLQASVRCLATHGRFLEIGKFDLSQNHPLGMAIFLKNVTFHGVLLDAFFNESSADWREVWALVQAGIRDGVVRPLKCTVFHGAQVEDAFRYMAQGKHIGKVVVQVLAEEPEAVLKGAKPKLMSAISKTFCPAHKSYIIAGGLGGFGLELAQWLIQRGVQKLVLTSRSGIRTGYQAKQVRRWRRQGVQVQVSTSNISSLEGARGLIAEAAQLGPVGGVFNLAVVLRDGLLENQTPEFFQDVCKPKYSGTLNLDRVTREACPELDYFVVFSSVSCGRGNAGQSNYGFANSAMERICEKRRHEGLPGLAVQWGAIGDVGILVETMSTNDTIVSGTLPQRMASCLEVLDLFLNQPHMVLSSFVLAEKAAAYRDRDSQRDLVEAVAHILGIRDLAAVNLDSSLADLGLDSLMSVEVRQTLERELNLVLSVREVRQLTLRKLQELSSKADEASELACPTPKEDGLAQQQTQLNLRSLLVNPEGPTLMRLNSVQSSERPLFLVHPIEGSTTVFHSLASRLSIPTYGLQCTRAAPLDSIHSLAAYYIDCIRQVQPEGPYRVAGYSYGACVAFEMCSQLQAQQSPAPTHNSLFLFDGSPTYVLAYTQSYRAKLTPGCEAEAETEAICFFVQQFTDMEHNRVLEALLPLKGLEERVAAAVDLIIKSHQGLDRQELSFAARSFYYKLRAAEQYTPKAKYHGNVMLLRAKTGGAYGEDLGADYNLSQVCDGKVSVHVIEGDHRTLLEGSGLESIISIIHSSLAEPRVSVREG
# protocol_details: FAS thioesterase domain inhibitors, dose response, biochemical, endpoint fluorescence intensity, uHTS hits (AID 624327);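 note: fluorescence from hydrolysis of an O-methyl fluorescein acyl ester substrate by the enzyme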
# Type: functional
The source made the active and inactive calls.
Select the correct class. Options are t = active, f = inactive and nothing else.

// known answers, use as guide
> print(dat)
                                   compound                              study.target  discrete.label
1      O=C(Nc1ccc(Br)cc1)c1cccc(-n2cnnn2)c1  Fatty acid synthase (Homo sapiens, UniProt P49327)               f
2  Cc1c(OCc2nn[nH]n2)ccc2c(-c3ccccc3)cc(=O)oc12  Fatty acid synthase (Homo sapiens, UniProt P49327)               t
3  CSc1ccc(CN2C(=O)C(F)(F)Oc3c(C(C)=O)cccc32)cc1  Fatty acid synthase (Homo sapiens, UniProt P49327)               t
4  COc1ccc(C(=O)N2CCN(CCc3ccccc3)CC2)cc1[N+](=O)[O-]  Fatty acid synthase (Homo sapiens, UniProt P49327)               t
5  C[C@@]12C(=O)N(c3cccc(Br)c3)C(=O)N1[C@H](c1ccc(Cl)cc1)[C@@H]1C(=O)N(C3CCCCC3)C(=O)[C@@H]12  Fatty acid synthase (Homo sapiens, UniProt P49327)               t

Please indicate how the test categorized `Oc1ccc(O)c2c1C1(Cl)C(Cl)=C(Cl)C2(Cl)C1(Cl)Cl` . t

Please indicate how the test categorized O=C(Nc1ccccc1Cl)/C(Cl)=C(\Cl)[S+]([O-])c1ccccc1 (configuration not stated) . t
